Tested on: HT-22 cells
Assay: Protective effect on HT-22 cell damage caused by L-glutamate monosodium salt
Format: cell-based, mouse
Details: Mus musculus, HT-22; Table 2; Conc 10 μM; 15 mM L-glutamate, 24 hours; L-Glu alone 27.83; read-out: Visibility %
Reported viability at 10 µM by item:
quantity_name: viability at 10 µM

[[record]]
compound_string = "COC(=O)NC(=O)/C=C/c1ccncc1"
result = "31.2%"

[[record]]
compound_string = "CN(C)C(=O)/C=C/c1ccncn1"
result = "51.2%"

[[record]]
compound_string = "CON(C)C(=O)/C=C/c1ccncn1"
result = "58.4%"

[[record]]
compound_string = "COC(=O)NC(=O)/C=C/c1ccccn1"
result = "34.1%"


====

System: HT-22 cells
Assay: Protective effect on HT-22 cell damage caused by L-glutamate monosodium salt
Type: cell-based, mouse
Conditions: Mus musculus, HT-22, 24 h, Table 1; Conc 5 μm; 15 mM L-glutamate, 24 hours; L-Glu alone 27.73 (I-5 32.92); read-out: cell viability
quantity_name: viability at 5 µM (%)

[[record]]
compound_string = "N#C/C=C/c1ccccn1"
quantity_name = "viability at 5 µM"
numeric_result = 58.2

[[record]]
compound_string = "CON(C)C(=O)/C=C/c1ccccn1"
quantity_name = "viability at 5 µM"
numeric_result = 50.9

[[record]]
compound_string = "CN(C)C(=O)/C=C/c1ccccn1"
quantity_name = "viability at 5 µM"
numeric_result = 35.4

[[record]]
compound_string = "CON(C)C(=O)/C=C/c1cccnc1"
quantity_name = "viability at 5 µM"
numeric_result = 43.4

[[record]]
compound_string = "CN(C)C(=O)/C=C/c1cccnc1"
quantity_name = "viability at 5 µM"
numeric_result = 39.3

[[record]]
compound_string = "COC(=O)/C=C/c1ccncc1"
quantity_name = "viability at 5 µM"
numeric_result = 40.2

[[record]]
compound_string = "COC(=O)/C=C/c1cccnc1"
quantity_name = "viability at 5 µM"
numeric_result = 37.3

[[record]]
compound_string = "N#C/C=C/c1ccncc1"
quantity_name = "viability at 5 µM"
numeric_result = 32.2

[[record]]
compound_string = "N#C/C=C/c1cccnc1"
quantity_name = "viability at 5 µM"
numeric_result = 40.1

[[record]]
compound_string = "CON(C)C(=O)/C=C/c1ccncc1"
quantity_name = "viability at 5 µM"
numeric_result = 43.4

[[record]]
compound_string = "COC(=O)/C=C/c1ccccn1"
quantity_name = "viability at 5 µM"
numeric_result = 38.4

[[record]]
compound_string = "CN(C)C(=O)/C=C/c1ccncc1"
quantity_name = "viability at 5 µM"
numeric_result = 51.5


====

System: HT-22 cells
Experiment: Protective effect on HT-22 cell damage caused by L-glutamate monosodium salt
Assay type: cell-based, mouse
Details: Mus musculus, HT-22, 24 h, Table 1; Conc 10 μm; 15 mM L-glutamate, 24 hours; L-Glu alone 27.73 (I-5 32.92); read-out: cell viability
Structures can show the parent of a compound that is named as a salt.
Reported viability at 10 µM by item:
quantity_name: viability at 10 µM (%)

[[record]]
compound = "CON(C)C(=O)/C=C/c1ccccn1"
numeric_result = 53

[[record]]
compound = "CN(C)C(=O)/C=C/c1ccccn1"
numeric_result = 40.3

[[record]]
compound = "COC(=O)/C=C/c1ccncc1"
numeric_result = 37.6

[[record]]
compound = "CN(C)C(=O)/C=C/c1cccnc1"
numeric_result = 44.3

[[record]]
compound = "CON(C)C(=O)/C=C/c1cccnc1"
numeric_result = 40.1

[[record]]
compound = "N#C/C=C/c1cccnc1"
numeric_result = 42.6

[[record]]
compound = "CON(C)C(=O)/C=C/c1ccncc1"
numeric_result = 37.5

[[record]]
compound = "COC(=O)/C=C/C(=O)OC [DMF, dimethyl fumarate, reference compound]"
numeric_result = 70.2

[[record]]
compound = "COC(=O)/C=C/c1ccccn1"
numeric_result = 33.4

[[record]]
compound = "CN(C)C(=O)/C=C/c1ccncc1"
numeric_result = 51.6

[[record]]
compound = "COC(=O)/C=C/c1cccnc1"
numeric_result = 31.2

